Tested on: NCI/ADR-RES
method_description: NCI tumour cell line growth inhibition, 48 h
Activity calls are given as the source filed them. Cut-off read from the data, not from the text of the source: active = GI50 up to about 1.1 µM and inactive = higher.
test_readout: GI50

Solved cases (5 shown):
# molecule, target, GI50
data = [
    ("N#Cc1c(-c2ccccc2)[nH]c2ccccc2c1=O", "NCI/ADR-RES", "> 100 µM (inactive)"),
    ("CC(NC(=O)C(N)CC(=O)O)C(=O)OC12CC3CC(CC(C3)C1)C2 (stereo unspecified)", "NCI/ADR-RES", "> 100 µM (inactive)"),
    ("COC(=O)c1ccccc1CC1Cc2c(C)ccc(C)c2C1=O (stereo unspecified)", "NCI/ADR-RES", "18.3 µM (inactive)"),
    ("NC(Cc1c2ccccc2cc2ccccc12)C(=O)O (stereo unspecified)", "NCI/ADR-RES", "> 100 µM (inactive)"),
    ("COc1ccc2c(c1)-c1c(c3cc(OC)ccc3n1CCN1CCOCC1)CC2", "NCI/ADR-RES", "20.7 µM (inactive)"),
]

Turning to the following molecule.
[Q] What value of GI50 has been reported for the following molecule? CC(C)Oc1c(N(Cc2ccccc2)c2ccccc2C2SCCCS2)c(=O)c1=O
[A] 1.75 µM (inactive)

Values were extracted from ChEMBL document CHEMBL1201862.
